# assay explanation: Solubility of amino acids in water
# Format: physicochemical
# measurement setup: at 25° C.
The entries below are paired with their reported solubility.
Give the quantity in mg/mL, number only.

Look up solubility: CSCCC(N)C(=O)O (racemic)
40

Turning now to a further molecule:
Look up solubility: CC(N)C(=O)O (racemic)
167
